- measured.on: mouse TRPM3α2 (mTRPM3) ion channel (Mus musculus (Mouse), UniProt J9SQF3)
- Sequence (J9SQF3 other isoform, or with tags, fused parts or gaps): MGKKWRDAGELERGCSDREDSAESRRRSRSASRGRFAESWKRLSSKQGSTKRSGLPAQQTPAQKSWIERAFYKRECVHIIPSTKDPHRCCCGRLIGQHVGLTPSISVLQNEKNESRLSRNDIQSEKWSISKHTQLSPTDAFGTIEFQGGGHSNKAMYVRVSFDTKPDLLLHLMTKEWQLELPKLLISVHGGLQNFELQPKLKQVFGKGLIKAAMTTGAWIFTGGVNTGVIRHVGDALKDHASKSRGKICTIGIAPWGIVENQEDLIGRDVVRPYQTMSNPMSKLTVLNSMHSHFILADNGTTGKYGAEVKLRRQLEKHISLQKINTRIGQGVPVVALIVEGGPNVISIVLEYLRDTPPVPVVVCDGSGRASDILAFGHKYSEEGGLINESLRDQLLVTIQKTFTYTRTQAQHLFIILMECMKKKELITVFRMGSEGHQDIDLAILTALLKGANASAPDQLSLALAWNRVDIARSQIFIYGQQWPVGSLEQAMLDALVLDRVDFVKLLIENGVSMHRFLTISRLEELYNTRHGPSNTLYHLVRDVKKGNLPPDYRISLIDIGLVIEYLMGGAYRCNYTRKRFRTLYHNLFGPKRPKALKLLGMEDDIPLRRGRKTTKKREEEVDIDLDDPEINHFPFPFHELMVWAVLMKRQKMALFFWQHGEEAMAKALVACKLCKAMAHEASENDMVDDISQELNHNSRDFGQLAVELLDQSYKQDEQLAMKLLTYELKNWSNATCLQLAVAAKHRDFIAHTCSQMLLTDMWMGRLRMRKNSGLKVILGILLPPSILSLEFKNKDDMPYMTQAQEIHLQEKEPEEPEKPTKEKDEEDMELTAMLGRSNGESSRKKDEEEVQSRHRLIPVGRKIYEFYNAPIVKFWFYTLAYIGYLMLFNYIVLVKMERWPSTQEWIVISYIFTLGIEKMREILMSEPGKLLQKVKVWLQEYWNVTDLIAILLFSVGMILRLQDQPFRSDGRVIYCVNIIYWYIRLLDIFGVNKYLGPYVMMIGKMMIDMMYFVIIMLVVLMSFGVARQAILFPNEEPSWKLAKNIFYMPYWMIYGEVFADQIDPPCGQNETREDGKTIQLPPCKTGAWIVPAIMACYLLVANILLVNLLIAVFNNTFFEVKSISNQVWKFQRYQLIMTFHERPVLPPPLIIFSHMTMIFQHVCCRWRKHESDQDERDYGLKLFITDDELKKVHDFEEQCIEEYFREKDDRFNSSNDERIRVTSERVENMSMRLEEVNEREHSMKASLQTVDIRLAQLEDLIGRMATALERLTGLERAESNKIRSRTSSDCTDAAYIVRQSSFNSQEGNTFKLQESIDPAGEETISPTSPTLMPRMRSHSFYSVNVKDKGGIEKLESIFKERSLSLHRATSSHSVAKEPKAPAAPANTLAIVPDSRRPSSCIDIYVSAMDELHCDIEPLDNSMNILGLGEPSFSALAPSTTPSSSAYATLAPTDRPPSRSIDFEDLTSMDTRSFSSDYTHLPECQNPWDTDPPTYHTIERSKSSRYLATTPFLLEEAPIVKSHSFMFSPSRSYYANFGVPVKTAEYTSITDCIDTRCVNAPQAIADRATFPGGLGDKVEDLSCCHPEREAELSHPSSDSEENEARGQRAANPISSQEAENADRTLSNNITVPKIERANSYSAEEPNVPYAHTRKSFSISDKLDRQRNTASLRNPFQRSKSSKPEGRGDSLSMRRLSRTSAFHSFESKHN
- assay.comment: TRPM3 ion channel driven Ca2+ uptake, Fluo-4 AM assay, mTRPM3alpha2 overexpressing flip-in HEK293 cells stimulated with pregnenolone sulfate
- Type: cell-based
- conditions: PS (50 μM) stimulated, cpds. 500-599
pIC50: −log10 of the molar value.
parameter.measured: pIC50

Request the reported pIC50 associated with Cc1ncccc1COc1ccc2oc(C)c(C(=O)NC3CCNCC3(F)F)c2c1 (single isomer, unassigned) [cpd 547-En 1]
> 6.00

====

- measured.on: mouse TRPM3α2 (mTRPM3) ion channel (Mus musculus (Mouse), UniProt J9SQF3)
- assay.comment: TRPM3 ion channel driven Ca2+ uptake, Fluo-4 AM assay, mTRPM3alpha2 overexpressing flip-in HEK293 cells stimulated with pregnenolone sulfate
- Assay type: cell-based
- conditions: PS (50 μM) stimulated, cpds. 608-666
Quick reference: IC50 of the listed items.

In the examples that follow, each entry is paired with its recorded IC50.
{"columns": ["molecule", "IC50"],
 "data": [
  ["Cc1cc(COc2ccc3oc(C)c(C(=O)NC4(CO)CCOCC4)c3c2)no1", "< 1 µM"],
  ["Cc1ncsc1COc1ccc2oc(C)c(C(=O)NC(C)(C)CCO)c2c1", "< 1 µM"]
]}

Item under review: Cc1oc2ccc(OCc3nccn3C)cc2c1C(=O)NC1CNCC1(F)F (single isomer, unassigned) [cpd 638-En 2] . Reported IC50?
1 to 20 µM

GET /values?readout=IC50&item= Cc1oc2ccc(OCc3cccnc3C(F)(F)F)cc2c1C(=O)NC1COCC1(F)F (stereo not shown)
< 1 µM

So what's the measured IC50 for this one? Cc1ncsc1C(C)Oc1ccc2oc(C)c(C(=O)NC3(CO)CCOCC3)c2c1 (stereo not shown)
< 1 µM

Fill blank: measured IC50 of the molecule Cc1oc2ccc(OCc3ccc[nH]c3=O)cc2c1C(=O)NC1(CO)CCOCC1 is ____.
< 1 µM

What IC50 value was documented for this molecule, COc1ncccc1COc1ccc2oc(C)c(C(=O)NC3COCC3(F)F)c2c1 (stereo not shown) ?
< 1 µM

Can you share its IC50? I mean this molecule: Cc1oc2ccc(OCc3nccn3C)cc2c1C(=O)NC1CNCCC1(F)F (single isomer, unassigned) [cpd 635-En 2]
1 to 20 µM

I'd like to know its IC50. The molecule in question is Cc1oc2ccc(OCc3nccn3C)cc2c1C(=O)NC1CNCC1(F)F (single isomer, unassigned) [cpd 638-En 1]
< 1 µM

Using the record for Cc1ncsc1COc1ccc2oc(C)c(C(=O)NCC(F)(F)F)c2c1 , report its IC50.
< 1 µM

Any idea what its IC50 is? The molecule is Cc1oc2ccc(OCc3cn(C)nn3)cc2c1C(=O)NC1(CO)CCOCC1
> 20 µM

GET /values?readout=IC50&item= Cc1oc2ccc(OCc3cccnc3O)cc2c1C(=O)NC1CNCCC1(F)F (single isomer, unassigned)
< 1 µM

Given the molecule Cc1oc2ccc(OCc3nccn3C)cc2c1C(=O)NC1COCC1(F)F (single isomer, unassigned) , what is its reported IC50?
1 to 20 µM

====

# key: entry, value: pIC50
- measured.on: mouse TRPM3α2 (mTRPM3) ion channel (Mus musculus (Mouse))
- assay.comment: TRPM3 ion channel driven Ca2+ uptake, Fluo-4 AM assay, mTRPM3alpha2 overexpressing flip-in HEK293 cells stimulated with pregnenolone sulfate
- Assay type: cell-based
- conditions: PS (50 μM) stimulated, cpds. 500-599
pIC50: −log10 of the molar value.

{"columns": ["molecule", "measured.on", "pIC50"],
 "data": [
  ["Cc1oc2ccc(OCc3cccnn3)cc2c1C(=O)NC1CCNCC1(F)F (single isomer, unassigned) [cpd 557-En 1]", "mouse TRPM3α2 (mTRPM3) ion channel (Mus musculus (Mouse))", "> 6.00"],
  ["Cc1ncsc1COc1ccc2oc(C)c(C(=O)NC3(CO)CC(F)(F)C3)c2c1 [compound 537]", "mouse TRPM3α2 (mTRPM3) ion channel (Mus musculus (Mouse))", "> 6.00"],
  ["Cc1oc2ccc(OCc3ccc4nccn4c3)cc2c1C(=O)NC1CCNCC1(F)F (single isomer, unassigned) [cpd 571-En 1]", "mouse TRPM3α2 (mTRPM3) ion channel (Mus musculus (Mouse))", "4.70 to 6.00"],
  ["Cc1oc2ccc(OCc3ccnn3C)cc2c1C(=O)NC1(CO)COC1 [compound 524]", "mouse TRPM3α2 (mTRPM3) ion channel (Mus musculus (Mouse))", "> 6.00"],
  ["Cc1oc2ccc(OCc3ccccn3)cc2c1C(=O)NC1(C(N)=O)COC1 [compound 581]", "mouse TRPM3α2 (mTRPM3) ion channel (Mus musculus (Mouse))", "> 6.00"]
]}

Next:
Which pIC50 is reported for this molecule? Cc1oc2ccc(OCc3nccs3)cc2c1C(=O)NC1CCNCC1(F)F (single isomer, unassigned) [cpd 560-En 2]
> 6.00
